The values you see were collected from paper PMC9501280.

Catalogue of % Inhibition FIC readings, one per entry.
# TEST PROTOCOL: Ferrous ions (Fe2+) chelating activity (FIC)
# CONDITION CONTEXT: compound 5 mM; EDTA taken as 100%
MEASUREMENT NAME: % Inhibition FIC (%)

molecule="[Se]=C(Nc1ccccc1)NC1C2CC3CC(C2)CC1C3 (centres unmarked)" result_value=19.74
molecule=[Se]=C(NCC12CC3CC(CC(C3)C1)C2)Nc1ccccc1 result_value=14.15
molecule="CC(NC(=[Se])Nc1ccccc1)C12CC3CC(CC(C3)C1)C2 (centres unmarked)" result_value=21.90
molecule=CC12CC3CC(C)(C1)CC(NC(=[Se])Nc1ccccc1)(C3)C2 result_value=26.20
molecule=[Se]=C(Nc1ccccc1)NC12CC3CC(CC(C3)C1)C2 result_value=13.6

* * *

# TEST PROTOCOL: ABTS radical cation scavenging
# Method: Thus, at the further steps, the complex investigation of the target compounds’ ability to interact with protons, electrons, and radicals was conducted.
MEASUREMENT NAME: % Inhibition ABTS+• (%)

compound="CC(NC(=[Se])Nc1ccccc1)C12CC3CC(CC(C3)C1)C2 (stereo not shown)" measurement_name="% Inhibition ABTS+•" result_value=77.44
compound=[Se]=C(NCCC12CC3CC(CC(C3)C1)C2)Nc1ccccc1 measurement_name="% Inhibition ABTS+•" result_value=64.55
compound=[Se]=C(NCC12CC3CC(CC(C3)C1)C2)Nc1ccccc1 measurement_name="% Inhibition ABTS+•" result_value=53.01
compound="[Se]=C(Nc1ccccc1)NC1C2CC3CC(C2)CC1C3 (stereo not shown)" measurement_name="% Inhibition ABTS+•" result_value=47.21

* * *

# TEST PROTOCOL: Superoxide radical anion formation by xanthine oxidase (NBT assay)
# Type: biochemical
# CONDITION CONTEXT: sample solution 5 mM in DMSO
MEASUREMENT NAME: % Inhibition NBT (%)

compound="CC(NC(=[Se])Nc1ccccc1)C12CC3CC(CC(C3)C1)C2 (stereo not shown)" measurement_name="% Inhibition NBT" result_value=6.52
compound=CC12CC3CC(C)(C1)CC(NC(=[Se])Nc1ccccc1)(C3)C2 measurement_name="% Inhibition NBT" result_value=10.93
compound=[Se]=C(NCCC12CC3CC(CC(C3)C1)C2)Nc1ccccc1 measurement_name="% Inhibition NBT" result_value=6.85
compound="[Se]=C(Nc1ccccc1)NC1C2CC3CC(C2)CC1C3 (stereo not shown)" measurement_name="% Inhibition NBT" result_value=14.26

* * *

Catalogue of CC50 at 24 h readings, one per entry.
# TEST PROTOCOL: MTT cytotoxicity on peritoneal macrophages
# Assay type: cell-based, mice
# CONDITION CONTEXT: male, C57bl/6j, mouse; 24 h incubation; read-out: MTT CC50 ± SE
MEASUREMENT NAME: CC50 at 24 h (µM)

smiles_str=[Se]=C(NCc1ccccc1)NCC12CC3CC(CC(C3)C1)C2 result_value=17.7
smiles_str=[Se]=C(Nc1ccccc1)NC12CC3CC(CC(C3)C1)C2 result_value=7.5

* * *

MEASUREMENT NAME: melting point

compound="CC12CC3CC(C)(C1)CC(NC(=[Se])NCc1ccccc1)(C3)C2 [5f]" measurement_name="melting point" result_value="112 to 113 °C"
compound="[Se]=C(NCCC12CC3CC(CC(C3)C1)C2)Nc1ccccc1 [4d]" measurement_name="melting point" result_value="141 to 142 °C"
compound="[Se]=C(NCc1ccccc1)NCC12CC3CC(CC(C3)C1)C2 [5b]" measurement_name="melting point" result_value="158 to 159 °C"
compound="[Se]=C(NCCC12CC3CC(CC(C3)C1)C2)NCc1ccccc1 [5d]" measurement_name="melting point" result_value="142 to 143 °C"
compound="[Se]=C(NCC12CC3CC(CC(C3)C1)C2)Nc1ccccc1 [4b]" measurement_name="melting point" result_value="197 to 198 °C"
